# System: Salmonella typhimurium Ames mutagenicity, literature compiled
# testDescription: DSSTox (CPDBAS) Carcinogenic Potency Database Salmonella Mutagenicity
Calls of active or inactive are those of the source.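 Rule for the calls: active = chemicals rated mutagenic or weakly mutagenic in the Salmonella bacterial test by one literature review, or positive overall by another; inconclusive = no clear call, values can overlap the other calls; inactive = the rest.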 Numbered stars: 1 amine (or outer) side, 2 acyl side, 3 side chain; on linkers, the order of the positions; unused ones are H or OH. Bridge positions count the residues as written; N and C are the ends. Square brackets hold non-standard residues; d marks the D form. Peptide text beside a SMILES is read from it. I, II: the chains in the order shown. Actinocin(9to1) = Cc1c2oc3c(C)ccc(C(=O)[*:1])c3nc-2c(C(=O)[*:2])c(N)c1=O; NMeV = CN[C@H](C(=O)O)C(C)C; Sar = CNCC(=O)O
Thanks in advance; please answer with one of these: active, inactive

Exam item: Status in this test for [N-]=[N+]=[N-] ?
Marked response: active

Exam item: # lookup: test call for CN(N=O)c1cccnc1
Marked response: inactive

Exam item: Hey, what did the test say about C=CCc1ccc(O)c(OC)c1 ?
Marked response: inactive

Exam item: How did this test come out for CC(=O)Nc1ccc2c(c1)Cc1cc(NC(C)=O)ccc1-2 ?
Marked response: active

Exam item: So what was the verdict on C=CC in this test?
Marked response: active

Exam item: Which outcome was entered for the compound CN(N=O)C(=O)c1ccccc1 in this test?
Marked response: active

Exam item: Which outcome did this test record for the compound O=C1C2CC=CCC2C(=O)N1SC(Cl)(Cl)Cl (stereo unspecified) ?
Marked response: active

Exam item: # outcome recorded in this test, key = O=C(O)c1ccccc1
Marked response: inactive

Exam item: Per the records of this test, what outcome belongs to CN(C)N=Nc1ccccc1 ?
Marked response: active

Exam item: Entry C=CCc1ccc(OC)cc1 : call = ?
Marked response: inactive

Exam item: What outcome does the record of this test show for Cc1ccc(S(=O)(=O)Oc2ccc(N=Nc3ccc(-c4ccc(N=Nc5c(O)ccc6cc(S(=O)(=O)O)cc(S(=O)(=O)O)c56)c(C)c4)cc3C)cc2)cc1 ?
Marked response: active

Exam item: I would be grateful if you could indicate the recorded call for COc1ccc(N)c(C)c1 .
Marked response: active

Exam item: Which outcome was entered for the compound COc1cc(-c2ccc(N=Nc3c(S(=O)(=O)O)cc4cc(S(=O)(=O)O)cc(N)c4c3O)c(OC)c2)ccc1N=Nc1c(S(=O)(=O)O)cc2cc(S(=O)(=O)O)cc(N)c2c1O in this test?
Marked response: active

Exam item: Just curious, what result did O=CC1CO1 (stereo unspecified) get here?
Marked response: active

Exam item: I'd appreciate the recorded outcome for CCc1ccc(C(c2ccc(CC)cc2)C(Cl)Cl)cc1 from this test.
Marked response: active

Exam item: Hi team, can someone confirm the assay call for COc1ccc(C(=O)/C(Br)=C\C(=O)O)cc1 ?
Marked response: active

Exam item: Tell me the assay call for C[C@@H]1Cc2c(Cl)cc(C(=O)N[C@@H](Cc3ccccc3)C(=O)O)c(O)c2C(=O)O1 please.
Marked response: inactive

Exam item: // outcome(item) with item = CCCC[N+](=O)[O-]
Marked response: inactive

Exam item: Would you mind telling me which call this test gave CN(C)Nc1nc(-c2ccc([N+](=O)[O-])o2)cs1 ?
Marked response: active

Exam item: Recorded test outcome, item CCOc1ccc2c(c1)C(C)=CC(C)(C)N2
Marked response: inactive

Exam item: Hi team, can someone confirm the assay call for ClC1=C(Cl)[C@@]2(Cl)[C@@H]3[C@@H](Cl)[C@H](Cl)C[C@@H]3C1(Cl)C2(Cl)Cl ?
Marked response: inactive

Exam item: Field: outcome | Entry: CCOP(=S)(OCC)Oc1cc(C)nc(C(C)C)n1
Marked response: inactive

Exam item: Tell me the assay call for IC(I)I please.
Marked response: active

Exam item: # lookup: test call for N/C(=N\O)c1ccc([N+](=O)[O-])o1
Marked response: active

Exam item: What was the test verdict on O=c1oc2c(O)c(O)cc3c(=O)oc4c(O)c(O)cc1c4c23 ?
Marked response: inactive

Exam item: So what was the verdict on COc1cc(CNC(=O)CCCC/C=C/C(C)C)ccc1O in this test?
Marked response: inactive

Exam item: Each compound tested received a call. Report the one for O=[N+]([O-])c1ccc2c3c(cccc13)CC2 .
Marked response: active

Exam item: Call for entry CN(C)c1ccc(N=NS(=O)(=O)O)cc1 :
Marked response: active

Exam item: Lab log entry: C=CCOC(=O)c1ccccc1C(=O)OCC=C — outcome as called in the assay?
Marked response: inactive

Exam item: Recorded test outcome, item O=NN1CCCC1
Marked response: active

Exam item: Returns: the outcome recorded for CCOP(=S)(OCC)SC1OCCOC1SP(=S)(OCC)OCC (stereo unspecified) in this assay.
Marked response: active

Exam item: What outcome does the record of this test show for CN(CCCC(=O)O)N=O ?
Marked response: inactive

Exam item: # fetch the recorded call for O=C1OC(=O)c2ccccc21 here
Marked response: inactive

Exam item: Please indicate how the test categorized c1ccc2c(c1)Oc1ccccc1O2 .
Marked response: inactive

Exam item: Per the assay record, what outcome was assigned to C=Cc1cccc(C)c1 ?
Marked response: inactive

Exam item: What classification did Cc1c2oc3c(C)ccc(C(=O)N[C@@H]4C(=O)N[C@H](C(C)C)C(=O)N5CCC[C@H]5C(=O)N(C)CC(=O)N(C)[C@@H](C(C)C)C(=O)O[C@@H]4C)c3nc-2c(C(=O)N[C@@H]2C(=O)N[C@H](C(C)C)C(=O)N3CCC[C@H]3C(=O)N(C)CC(=O)N(C)[C@@H](C(C)C)C(=O)O[C@@H]2C)c(N)c1=O (I: T[dV]P[Sar][NMeV] / II: T[dV]P[Sar][NMeV]; ester I:1-I:C, II:1-II:C; linker I:N-II:N via Actinocin(9to1)) end up with in this test?
Marked response: inactive
